# Tested on: BMMCs
# Protocol Text: MTT assay, inhibition of the growth of BMMCs (cell toxicity)
# Assay type: cell-based
# Measurement Setup: 10 μM
Measurement Type: Cell Toxicity (%)

1) CC(=O)OCCCC(C)C1=C(C)CC2OC(=O)C3(CC(c4ccc(F)cc4)=NO3)C2C1=O (stereo not shown): −8.44
2) CC(=O)OCCCC(C)C1=C(C)CC2OC(=O)C3(CC(c4ccccc4)=NO3)C2C1O (stereo not shown): 5.98
3) C=C1C(=O)O[C@@H]2CC(C)=C([C@@H](C)CCCOC(C)=O)[C@H](O)[C@H]12: 1.15
4) CC(=O)OCCCC(C)C1=C(C)CC2OC(=O)C3(CC(c4ccc(C)cc4)=NO3)C2C1=O (stereo not shown): −0.66
5) CC(=O)OCCCC(C)C1=C(C)CC2OC(=O)C3(CC(c4ccc(Cl)cc4)=NO3)C2C1=O (stereo not shown): 2.95
6) CC(=O)OCCCC(C)C1=C(C)CC2OC(=O)C3(CC(c4ccc(C)cc4)=NO3)C2C1OC(C)=O (stereo not shown): 4.1
7) CC(=O)OCCCC(C)C1=C(C)CC2OC(=O)C3(CC(c4ccc(Br)cc4)=NO3)C2C1O (stereo not shown): 1.06

====

# Test system: BMMCs
# Protocol Text: MTT assay, inhibition of the growth of BMMCs (cell toxicity)
# Format: cell-based
# Measurement Setup: 10 μM
# Experimental: (1) Experimental Animal: a 6-week-old female Balb/C mouse without specific pathogens. (2) Extraction Process: the mouse was sacrificed by cervical dislocation. After confirming the death of the mouse, it was immersed in alcohol for 3-5 minutes. […] (2) Method: BMMCs were seeded in 96-well plates at a density of 2×10^5/mL at 100 μL per well, and the compounds of different concentrations were added. […] After mixing, the absorbance (OD value) was measured at 490 nm using a microplate reader. […]
Parameter: Cell Toxicity (%). Scope: all listed entries.
Measurement Type: Cell Toxicity (%)

1) CC(=O)OCCCC(C)C1=C(C)CC2OC(=O)C3(CC(c4ccncc4)=NO3)C2C1OC(C)=O (stereo not shown): 9.58
2) CC(=O)OCCCC(C)C1=C(C)CC2OC(=O)C3(CC(c4ccccc4)=NO3)C2C1=O (stereo not shown): 0.16
3) CC(=O)OCCCC(C)C1=C(C)CC2OC(=O)C3(CC(c4ccc(C)cc4)=NO3)C2C1O (stereo not shown): −1.06
4) CC(=O)OCCCC(C)C1=C(C)CC2OC(=O)C3(CC(c4ccc([N+](=O)[O-])cc4)=NO3)C2C1=O (stereo not shown): 5.65
5) CC(=O)OCCCC(C)C1=C(C)CC2OC(=O)C3(CC(c4ccc([N+](=O)[O-])cc4)=NO3)C2C1OC(C)=O (stereo not shown): 6.63
6) COc1ccc(C2=NOC3(C2)C(=O)OC2CC(C)=C(C(C)CCCOC(C)=O)C(=O)C23)cc1 (stereo not shown): 5.81
7) CC(=O)OCCCC(C)C1=C(C)CC2OC(=O)C3(CC(c4ccc([N+](=O)[O-])cc4)=NO3)C2C1O (stereo not shown): 20.64

====

# Test system: BMMCs
# Protocol Text: MTT assay, inhibition of the growth of BMMCs (cell toxicity)
# Assay type: cell-based
# Measurement Setup: 10 μM
Examples of compounds with documented Cell Toxicity (%) follow.
Measurement Type: Cell Toxicity (%)

1. CC(=O)OCCCC(C)C1=C(C)CC2OC(=O)C3(CC(c4ccncc4)=NO3)C2C1O (centres unmarked): 4.26
2. CC(=O)OCCCC(C)C1=C(C)CC2OC(=O)C3(CC(c4ccncc4)=NO3)C2C1=O (centres unmarked): 9.09
3. CC(=O)OCCCC(C)C1=C(C)CC2OC(=O)C3(CC(c4ccc(C#N)cc4)=NO3)C2C1O (centres unmarked): −0.66
4. CC(=O)OCCCC(C)C1=C(C)CC2OC(=O)C3(CC(c4ccc(Br)cc4)=NO3)C2C1OC(C)=O (centres unmarked): 9.58
5. CC(=O)OCCCC(C)C1=C(C)CC2OC(=O)C3(CC(c4ccc(Cl)cc4)=NO3)C2C1OC(C)=O (centres unmarked): −6.22
6. CC(=O)OCCCC(C)C1=C(C)CC2OC(=O)C3(CC(c4ccc(Cl)cc4)=NO3)C2C1O (centres unmarked): 1.88
7. CC(=O)OCCCC(C)C1=C(C)CC2OC(=O)C3(CC(c4ccc(O)cc4)=NO3)C2C1O (centres unmarked): −0.9
8. CC(=O)OCCCC(C)C1=C(C)CC2OC(=O)C3(CC(c4ccc(O)cc4)=NO3)C2C1OC(C)=O (centres unmarked): 21.95
9. COc1ccc(C2=NOC3(C2)C(=O)OC2CC(C)=C(C(C)CCCOC(C)=O)C(O)C23)cc1 (centres unmarked): 7.37
10. C=C1C(=O)OC2CC(C)=C(C(C)CCCOC(C)=O)C(OC(C)=O)C12 (centres unmarked) [OABL, 1,6-O,O-diacetylbritannilatone, reference compound]: 3.46
11. CC(=O)OCCCC(C)C1=C(C)CC2OC(=O)C3(CC(c4ccc(C#N)cc4)=NO3)C2C1OC(C)=O (centres unmarked): 0.25
12. CC(=O)OCCCC(C)C1=C(C)CC2OC(=O)C3(CC(c4ccccc4)=NO3)C2C1OC(C)=O (centres unmarked): 5.98
13. COc1ccc(C2=NOC3(C2)C(=O)OC2CC(C)=C(C(C)CCCOC(C)=O)C(OC(C)=O)C23)cc1 (centres unmarked): 11.12
14. CC(=O)OCCCC(C)C1=C(C)CC2OC(=O)C3(CC(c4ccc(F)cc4)=NO3)C2C1O (centres unmarked): 1.47
15. CC(=O)OCCCC(C)C1=C(C)CC2OC(=O)C3(CC(c4ccc(F)cc4)=NO3)C2C1OC(C)=O (centres unmarked): −1.97
16. CC(=O)OCCCC(C)C1=C(C)CC2OC(=O)C3(CC(c4ccc(C#N)cc4)=NO3)C2C1=O (centres unmarked): 3.19
17. CC(=O)OCCCC(C)C1=C(C)CC2OC(=O)C3(CC(c4ccc(Br)cc4)=NO3)C2C1=O (centres unmarked): −4.59

The measurements presented in this section are drawn from patent US11028102B2.
